# assay_remarks: Crystallinity by XRPD
# Assay type: physicochemical
quantity_kind: Crystallinity

CN1CCN(c2ccc3nc(-c4c(N)c5c(F)cccc5[nH]c4=O)[nH]c3c2)CC1 [Mono-mesylate] :: crystalline
CN1CCN(c2ccc3nc(-c4c(N)c5c(F)cccc5[nH]c4=O)[nH]c3c2)CC1 [Mono-citrate] :: crystalline
CN1CCN(c2ccc3nc(-c4c(N)c5c(F)cccc5[nH]c4=O)[nH]c3c2)CC1 (racemic) [Mono-lactate] :: crystalline
CN1CCN(c2ccc3nc(-c4c(N)c5c(F)cccc5[nH]c4=O)[nH]c3c2)CC1 [Hemi-malate] :: crystalline
CN1CCN(c2ccc3nc(-c4c(N)c5c(F)cccc5[nH]c4=O)[nH]c3c2)CC1 [Mono-malate] :: crystalline
CN1CCN(c2ccc3nc(-c4c(N)c5c(F)cccc5[nH]c4=O)[nH]c3c2)CC1 [Bis-mesylate] :: mixture of crystalline
CN1CCN(c2ccc3nc(-c4c(N)c5c(F)cccc5[nH]c4=O)[nH]c3c2)CC1 [Bis-Acetate] :: mixture of crystalline
CN1CCN(c2ccc3nc(-c4c(N)c5c(F)cccc5[nH]c4=O)[nH]c3c2)CC1 [Phosphate] :: mixture of crystalline
CN1CCN(c2ccc3nc(-c4c(N)c5c(F)cccc5[nH]c4=O)[nH]c3c2)CC1 [Mono-tartrate] :: crystalline
CN1CCN(c2ccc3nc(-c4c(N)c5c(F)cccc5[nH]c4=O)[nH]c3c2)CC1 [Bis-Lactate] :: mixture of crystalline
CN1CCN(c2ccc3nc(-c4c(N)c5c(F)cccc5[nH]c4=O)[nH]c3c2)CC1 [Sulfate] :: mixture of crystalline

* * *

# maps each entry to its Area % at Time = 0
# assay_remarks: Chemical stability, solid state (HPLC)
# condition: solid state, 40° C./70% Relative humidity
quantity_kind: Area % at Time = 0 (Area %)

CN1CCN(c2ccc3nc(-c4c(N)c5c(F)cccc5[nH]c4=O)[nH]c3c2)CC1 [Bis-Lactate] :: 98.99
CN1CCN(c2ccc3nc(-c4c(N)c5c(F)cccc5[nH]c4=O)[nH]c3c2)CC1 (racemic) [Mono-lactate] :: 98.46
CN1CCN(c2ccc3nc(-c4c(N)c5c(F)cccc5[nH]c4=O)[nH]c3c2)CC1 [Mono-mesylate] :: 98.89
CN1CCN(c2ccc3nc(-c4c(N)c5c(F)cccc5[nH]c4=O)[nH]c3c2)CC1 [Phosphate] :: 98.84
CN1CCN(c2ccc3nc(-c4c(N)c5c(F)cccc5[nH]c4=O)[nH]c3c2)CC1 [Bis-mesylate] :: 98.78

* * *

# maps each entry to its Area % at Time = 6 weeks
# assay_remarks: Chemical stability, solid state (HPLC)
# condition: solid state, 40° C./70% Relative humidity
quantity_kind: Area % at Time = 6 weeks (Area %)

CN1CCN(c2ccc3nc(-c4c(N)c5c(F)cccc5[nH]c4=O)[nH]c3c2)CC1 [Bis-mesylate] :: 98.35
CN1CCN(c2ccc3nc(-c4c(N)c5c(F)cccc5[nH]c4=O)[nH]c3c2)CC1 [Bis-Lactate] :: 97.92
CN1CCN(c2ccc3nc(-c4c(N)c5c(F)cccc5[nH]c4=O)[nH]c3c2)CC1 (racemic) [Mono-lactate] :: 98.55
CN1CCN(c2ccc3nc(-c4c(N)c5c(F)cccc5[nH]c4=O)[nH]c3c2)CC1 [Phosphate] :: 98.86
CN1CCN(c2ccc3nc(-c4c(N)c5c(F)cccc5[nH]c4=O)[nH]c3c2)CC1 [Mono-mesylate] :: 98.7

* * *

# maps each entry to its Area % at Time = 0
# assay_remarks: Chemical stability, solid state (HPLC)
# condition: solid state, 30° C./60% Relative humidity
quantity_kind: Area % at Time = 0 (Area %)

CN1CCN(c2ccc3nc(-c4c(N)c5c(F)cccc5[nH]c4=O)[nH]c3c2)CC1 [Mono-mesylate] :: 98.80
CN1CCN(c2ccc3nc(-c4c(N)c5c(F)cccc5[nH]c4=O)[nH]c3c2)CC1 [Phosphate] :: 98.47
CN1CCN(c2ccc3nc(-c4c(N)c5c(F)cccc5[nH]c4=O)[nH]c3c2)CC1 (racemic) [Mono-lactate] :: 98.41
CN1CCN(c2ccc3nc(-c4c(N)c5c(F)cccc5[nH]c4=O)[nH]c3c2)CC1 [Bis-Lactate] :: 98.71
CN1CCN(c2ccc3nc(-c4c(N)c5c(F)cccc5[nH]c4=O)[nH]c3c2)CC1 [Bis-mesylate] :: 99.01
